Test system: RPMI-8226
assay summary: NCI tumour cell line growth inhibition, 48 h
Calls of active or inactive are those of the source. No stated cut-off is given here; in the data, active = GI50 up to about 1.1 µM and inactive = higher.
Recorded GI50 values for a group of compounds are listed next.

Sample records with GI50:
{"compound": "COc1cc(/C=C(\\C#N)c2ccccc2)cc(OC)c1", "readout label": "GI50", "reading": "35.6 µM (inactive)"}
{"compound": "Nc1nc(N)c(C2=CCNCC2)c(=O)[nH]1", "readout label": "GI50", "reading": "> 100 µM (inactive)"}

Note to self: GI50 recorded for O=C(/C=C/c1ccc(O)c(O)c1)OC1C[C@@](O)(C(=O)O)C[C@@H](O)[C@H]1OC(=O)/C=C/c1ccc(O)c(O)c1 (stereo partly drawn) was > 100 µM (inactive)

Note to self: GI50 recorded for COc1ccc2c(c1)[n+]([O-])c(-c1c(Cl)cccc1Cl)c(N)[n+]2[O-] was 80.4 µM (inactive)

# GI50 of CCOC(=O)/C(=C\c1ccnc2ccccc12)P(=O)(OCC)OCC = 2.67 µM (inactive)

Lab note: measured GI50 of COC(=O)CCC(=O)NC1C2CC3CC(C2)CC1C3 (stereo not drawn) was > 100 µM (inactive)

Documented GI50 of COc1cc2nc(-c3cccs3)nc(Nc3ccccc3C(=O)NN)c2cc1OC : > 100 µM (inactive)

Sample CCOC(=O)OC1C(Br)C2CCC1(C)C2(C)C (stereo not drawn) ; GI50 observed: 5.46 µM (inactive)
